Measured values drawn from patent US20190367612A1 for this set.

biological target: T1, human GPRC5D (human, UniProt Q9NZD1 1-345); experiment: flow cytometry on KHM-1B cells (human GPRC5D), culture supernatant, PE anti-human IgG Fc, rMFI over human IgG isotype control
T1 construct: whole, on cells; also called hGPRC5D; G-protein coupled receptor family C group 5 member D
T1 sequence (Q9NZD1 whole entry): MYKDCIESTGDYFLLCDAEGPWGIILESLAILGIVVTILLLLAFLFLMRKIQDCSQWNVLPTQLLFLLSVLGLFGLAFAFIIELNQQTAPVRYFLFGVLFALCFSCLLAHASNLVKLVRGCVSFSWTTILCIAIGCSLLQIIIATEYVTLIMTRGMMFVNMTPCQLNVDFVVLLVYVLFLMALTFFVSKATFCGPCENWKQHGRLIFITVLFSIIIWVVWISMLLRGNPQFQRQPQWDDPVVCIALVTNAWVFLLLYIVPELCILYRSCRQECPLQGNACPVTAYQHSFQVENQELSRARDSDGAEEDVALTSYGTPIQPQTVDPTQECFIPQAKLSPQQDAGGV
RECORDED_ENDPOINT: binding result

- BINDER: "humanized anti-GPRC5D antibody h2B1_H2/L2 (antibody, human IgG1, kappa, V domains shown, Human IgG1 / kappa) VH: QVQLVESGGGLVKPSQTLSLTCTFSGFSLNTYDMGVGWIRQPPGKGLEWIGNIWWDDDKYYNPSLKSRVTISKDTSNNQASLKLSSVTAADTAVYYCARIETVRVSRKGFAHWGQGTLVTVSS VL: DTVMTQSPDSLAVSLGERATINCKASQSVGINVDWYQQKPGQPPKLLIYGASNRHTGVPDRFSGSGFGTDFTLTISSLQAEDVAVYYCLQHGSIPPTFGQGTKVEIKR"
  RECORDED_ENDPOINT: "binding result"
  TEST_RESULT: "binds"
- BINDER: "humanized anti-GPRC5D antibody h7B4_H5/L1 (antibody, human IgG1, kappa, V domains shown, Human IgG1 / kappa) VH: EIQLQESGPGLVKPSQTLSLTCTVSGYTITSGYDWSWIRKPPGNKMEWIAYMSYRGSTNYNPSLKSRVTISRDTSKNQFSLKLSSVTAADTAVYYCALTRTYWYNYYYVLDAWGQGTLVTVSS VL: EIVLTQSPGTLSLSPGERATLSCKASQNINKYLDWYQQKPGQPPRLLIYNTNNLHTGIPDRFSGSGSGTDYTLTISRLEPEDFAVYYCLQRNSWYTFGQGTKVEIKR"
  RECORDED_ENDPOINT: "binding result"
  TEST_RESULT: "binds"
